The values you see were collected from the supplement of paper PMC11865577.

The following sequences are listed with their measured pull-down binding Z-score values.
Test system: G-clamp-N3 (biotin conjugate)
assay_summary: pull-down binding Z-score (relative to library population); higher = stronger binding
study_conditions: RNA library: Library-1 (pre-miRNA loops + repeats)
Lab note: record just the number, no unit beside it.

Worked cases, answers included:
AAGAGGUAAGAAGAAGUGAAGCCCUCUU [hsa-mir-4778] ... -0.836
AUUGUACUGUGGUGGUUACAAU [hsa-mir-34b] ... 0.118
GUGAGCUCAGCUCCCUGCCUCAC [hsa-mir-3622b] ... -1.4
CCAGGCCACAUAAUGAGCCAAA [hsa-mir-6771] ... -1.04
CAUAUGUGUAACAGACAUACAUACAUACAUAUG [hsa-mir-3688-2] ... -0.866

Next sequence, please.
// fetch pull-down binding Z-score; item: UGGGUUGAACUGUGUGGACAAGCUCA [hsa-mir-181b-1] ; system: G-clamp-N3 (biotin conjugate)
-0.166

* * *

Tested on: TO-N3-2 (biotin conjugate)
assay_summary: pull-down binding Z-score (relative to library population); higher = stronger binding
study_conditions: RNA library: Library-2
The following sequences are listed with their measured pull-down binding Z-score values.

Worked cases, answers included:
GGGCCUGGGUUUCUGAACAC [hsa-mir-196a-1] ... 0.762
CUGUCUGUUGUAUAAAAGAAAAGAUCG [hsa-mir-517a] ... 1
UCCAACCUGAAAUCCUUCUGUAGGUUGAG [hsa-mir-5702] ... 0.0189
CAGGUAGUUUUGGCAUGACUCUACUG [hsa-mir-20b] ... 1.44

Answer with reported pull-down binding Z-score of GACUGCUCAAGGUCAAAGGGGUC [hsa-mir-3918]
0.66

Answer with reported pull-down binding Z-score of UUUCCCAUUAUUUUAAUUGCGAA [hsa-mir-570]
-1.16

Answer with reported pull-down binding Z-score of GCUCCCAACCAACCACUUCCACAUGUUUUGCUGGU [hsa-mir-4451]
0.308

Answer with reported pull-down binding Z-score of UGGAGGUGAUGGAUGUUUUCCUCCG [hsa-mir-671]
-0.359

Answer with reported pull-down binding Z-score of UCACAGGGCUCAGGGAAUGUGUCUGCACCUGUGA [hsa-mir-587]
0.206

Answer with reported pull-down binding Z-score of GACUUGAGAUUAUAGUC [hsa-mir-3685]
-0.546

Answer with reported pull-down binding Z-score of CCAAGACAUGUGAUCUGCACCUCUGAAGACAUGCUUAACCCUAAUUAUGAAGAUUUACUCAUUCGUAAGUCUAAUCAUAAUUUCUUGG [DMSMaPseq_invitro_SARS-CoV-2_Multi_33_ComplexLevel_1]
0.229

Answer with reported pull-down binding Z-score of GCCUCCUGGAUCUCUAGGUCUCAGGGC [hsa-mir-6744]
0.118

Answer with reported pull-down binding Z-score of GAAGUCACACCUUC [SHAPE_invitro_SARS-CoV-2_Motif_534]
-0.517

* * *

Tested on: TO-3-N3 (biotin conjugate)
assay_summary: pull-down binding Z-score (relative to library population); higher = stronger binding
study_conditions: RNA library: Library-2
recorded_endpoint: pull-down binding Z-score

GAAUGAAAAAAUGAAUCAUC [hsa-mir-421] ... -0.311
UGUGUGUACUCACAGCCCCUCACACA [hsa-mir-942] ... -0.301
GAGUAUUAGGUUUGAAAACCCUUGCUACUC [SHAPE_invivo_SARS-CoV-2_Motif_136] ... -0.732

Answer with reported pull-down binding Z-score of GACUUCCAUGACAUGAAAUAGGAAGUC [hsa-mir-616]
-0.453

Answer with reported pull-down binding Z-score of UAAUCAGACAAGGAACUGAUUA
-0.426

Answer with reported pull-down binding Z-score of UCCCAGGCCCUUCCUCCAAUACUGGGA [hsa-mir-4666b]
-0.252

* * *

Tested on: TO-3-N3 (biotin conjugate)
assay_summary: pull-down binding Z-score (relative to library population); higher = stronger binding
study_conditions: RNA library: Library-2
recorded_endpoint: pull-down binding Z-score
Lab note: record just the number, no unit beside it.

Worked cases, answers included:
CCAGAGAAGAAACUGG ... 0.466
GGGGACGACCU [IAV_invivo_NA_6_Motif_17+IAV_invivo_NA_6_Motif_17] ... 0.479
GAUGUAUCCAAGUACCCUGUGUUAUUUGGCAAUAAAUACAUC [hsa-mir-1298] ... -0.204
GGUCUCCGACGGAGGCC [IAV_invivo_PB1_2_Motif_32+IAV_invivo_PB1_2_Motif_32] ... 0.0169
CAGACUUUGUGAAUGAGUUUUACGCAUAUUUGCGUAAACAUUUCUCAAUGAUGAUACUCUCUG ... -0.682

Answer with reported pull-down binding Z-score of GAAGGAAGGCAAGGCUGUCUGUCCAUC [hsa-mir-4800]
0.852

Answer with reported pull-down binding Z-score of CGGGGCGGACGCAGAGCCGCGUUUAGUCUAUCG [hsa-mir-639]
0.0365

Answer with reported pull-down binding Z-score of AUGUUUGUCAAACAUAAGCAU [DMSMaPseq_invitro_SARS-CoV-2_Motif_200]
-0.651

Answer with reported pull-down binding Z-score of GGGAGGUAUGAUAUCGUGGUUCCU [hsa-mir-3689e]
0.555

Answer with reported pull-down binding Z-score of CUGGCAUUUACGAGUCAGAGUUCUUACAGAGCUGC [hsa-mir-6514]
0.163

Answer with reported pull-down binding Z-score of ACUUUCUGGUGCCAGAAUGAAAGU [hsa-mir-512-2_512-1]
-0.391

Answer with reported pull-down binding Z-score of CUUCAUUAAAAGAAUUACUGCAAAAUGGUAUGAAUGGACGUACCAUAUUGGGUAGUGCUUUAUUAGAAG
-0.675

Answer with reported pull-down binding Z-score of AAGUUCCCUCUGGCUGGAAC [hsa-mir-1249]
0.574

Answer with reported pull-down binding Z-score of GGCGAAUCUGGCGCC [IAV_invivo_NP_5_Motif_7+IAV_invivo_NP_5_Motif_7]
0.577

Answer with reported pull-down binding Z-score of GUAAAUUUACUUAC [DMSMaPseq_invitro_SARS-CoV-2_Motif_170]
0.655

Answer with reported pull-down binding Z-score of GAGACUUUAAAAGCGUCUC [hsa-mir-3926-1]
-0.747

Answer with reported pull-down binding Z-score of AAUAAAGUAUGUCCACAGCUGAAAGGACAUACUUUAUU [hsa-mir-4464]
-0.7

Answer with reported pull-down binding Z-score of GAUUGAAGUUGAAUAGUGC [hsa-mir-3161]
-0.231

Answer with reported pull-down binding Z-score of GUCACCAGCCCUCAUGUACUUGUGAC [hsa-mir-6820]
0.335

Answer with reported pull-down binding Z-score of UCCCAUUUCCACAUGGAGAGUGGAGCCCAGA [hsa-mir-3123]
0.384

Answer with reported pull-down binding Z-score of CAGUGGUGCCAUCUCCCCUG [hsa-mir-5008]
-0.377

* * *

The following sequences are listed with their measured pull-down binding Z-score values.
Tested on: TO-3-N3-2 (biotin conjugate)
assay_summary: pull-down binding Z-score (relative to library population); higher = stronger binding
study_conditions: RNA library: Library-2
Lab note: record just the number, no unit beside it.

GCGCUGCCAGAAACUGGCUAAGCGC [bulge-UA] ... -0.353
GGAAUGGAUCCC [IAV_invivo_NP_5_Motif_9+IAV_invivo_NP_5_Motif_9] ... -0.0967
CUGUUUUUCAG ... -0.661
CUCAACUCUUGGUCCUCUGAG [hsa-mir-3165] ... 0.0789
UUUGUCAUUAAAGUAAUGCAAA [hsa-mir-548m] ... -0.211

Answer with reported pull-down binding Z-score of UAGAUGCUGUAAAUUUACUUACUAAUAUGUUUACACCACUAAUUCAACCUAUUGGUGCUUUGGACAUAUCAGCAUCUA [DMSMaPseq_invitro_SARS-CoV-2_Multi_30_ComplexLevel_1]
-0.0621

Answer with reported pull-down binding Z-score of CCUGUCCUAUGACAAACAUGGCAGG [hsa-mir-3927]
-0.497

Answer with reported pull-down binding Z-score of GUGGCUUGUGGCUGAGUGUCACGCUGC [hsa-mir-6068]
-0.233

* * *

Test system: TO-3-N3-2 (biotin conjugate)
assay_summary: pull-down binding Z-score (relative to library population); higher = stronger binding
study_conditions: RNA library: Library-2
Assign class by pull-down binding Z-score: not lower than -0.2 means rule met; lower than -0.2 means rule not met.

Example results:
GCUUCCACAAGUGCUUUUGUGGAAACUGUGAAAGGUUUGGAUUAUAAAGCAUUCAAACAAAUUGUUGAAUCCUGUGGUAAUUUUAAAGUUACAAAAGGAAAAGC ... rule not met
AUUGCAUGUUCUGGUGGUACCCAUGCAAU [hsa-mir-33a] ... rule met
UGAUUUGUGACUUAAGAUUAAAAUCA [hsa-mir-23b] ... rule met

Is pull-down binding Z-score at least -0.2? Consider UCUUGCCGAAUACCAUAAUGAAUCUGGCUUGA [SHAPE_invivo_SARS-CoV-2_Motif_27]
rule not met

Is pull-down binding Z-score at least -0.2? Consider CAAGGGCUCUACUGUCCUUUCAGGAGAGCCCUUG [hsa-mir-4776-2]
rule not met

Is pull-down binding Z-score at least -0.2? Consider GGCGCUUCUCCUUCUGAACAGAGCGCU [hsa-mir-1251]
rule met

Is pull-down binding Z-score at least -0.2? Consider GAGUGGUCGGGUCGACUGAACC [hsa-mir-4726]
rule met

Is pull-down binding Z-score at least -0.2? Consider CUGAUUGUCAUAUGUCGUUUGUGGGAUCCG [hsa-mir-340]
rule not met

Is pull-down binding Z-score at least -0.2? Consider GGAUUUGCUUCCUGUCACAAAUCA [hsa-mir-23a]
rule not met

Is pull-down binding Z-score at least -0.2? Consider GGCCCGAGUGAUGGGCU [IAV_invivo_NA_6_Motif_9+IAV_invivo_NA_6_Motif_9]
rule not met
